tgt: UniProt Q96SB4
Sequence (Q96SB4 whole entry, looked up): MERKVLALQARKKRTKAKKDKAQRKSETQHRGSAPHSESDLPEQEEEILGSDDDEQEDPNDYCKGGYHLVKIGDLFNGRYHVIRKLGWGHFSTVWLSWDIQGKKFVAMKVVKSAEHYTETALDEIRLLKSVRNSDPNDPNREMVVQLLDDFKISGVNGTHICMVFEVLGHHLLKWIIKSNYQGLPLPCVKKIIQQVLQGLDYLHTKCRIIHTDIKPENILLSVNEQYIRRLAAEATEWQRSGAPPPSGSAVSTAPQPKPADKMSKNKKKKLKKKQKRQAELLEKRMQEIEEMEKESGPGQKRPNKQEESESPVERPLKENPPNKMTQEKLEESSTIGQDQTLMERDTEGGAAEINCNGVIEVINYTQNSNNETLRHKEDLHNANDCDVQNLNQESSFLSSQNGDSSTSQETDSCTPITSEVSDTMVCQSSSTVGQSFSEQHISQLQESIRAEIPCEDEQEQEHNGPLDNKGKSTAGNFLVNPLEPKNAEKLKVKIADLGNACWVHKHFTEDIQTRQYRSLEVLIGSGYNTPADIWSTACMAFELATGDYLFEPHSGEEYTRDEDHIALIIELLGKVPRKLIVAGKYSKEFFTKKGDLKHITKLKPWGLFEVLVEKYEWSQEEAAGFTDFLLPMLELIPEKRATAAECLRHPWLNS
method summary: KINOMEscan competition binding
test parameters: compound 10.0 µM
parameter: kinase still bound, per cent of control (%)
Expressed in %, but write only the number.

Sample records with kinase still bound, per cent of control:
{"chemical structure": "Cc1cc([C@@H](C)Nc2ccccc2C(=O)O)c2nc(N3CCOCC3)cc(=O)n2c1", "result units": "%", "kinase still bound, per cent of control": 100}
{"chemical structure": "N#Cc1c(NC(=O)c2cccc3ccccc23)sc2c1CCCC2", "result units": "%", "kinase still bound, per cent of control": 100}
{"chemical structure": "C[C@@H](Oc1cc(-n2cnc3ccc(CN4CCN(C)CC4)cc32)sc1C(N)=O)c1ccccc1C(F)(F)F", "result units": "%", "kinase still bound, per cent of control": 46}
{"chemical structure": "O=C(NOC[C@H](O)CO)c1ccc(F)c(F)c1Nc1ccc(I)cc1F", "result units": "%", "kinase still bound, per cent of control": 100}
{"chemical structure": "CCN1CCN(Cc2ccc(Nc3ncc4c(n3)N(C)c3ccccc3C(=O)N4C)cc2C(F)(F)F)CC1", "result units": "%", "kinase still bound, per cent of control": 82}

Entry CCC(=O)N1CCN(c2ccc(-n3c(=O)ccc4cnc5ccc(-c6cnc7ccccc7c6)cc5c43)cc2C(F)(F)F)CC1 has what kinase still bound, per cent of control?
100

Any idea what kinase still bound, per cent of control was measured for C=CC(=O)Nc1cc(NC(=O)c2ccc(C)c(NC(=O)c3ccno3)c2)cc(C(F)(F)F)c1 ?
86

Quick one: kinase still bound, per cent of control for Cc1ccc(C(=O)Nc2cccc(C(F)(F)F)c2)cc1Nc1cncc(C(N)=O)c1 ?
100

Bench note: what kinase still bound, per cent of control did CC[C@@H]1C(=O)N(C)c2cnc(Nc3ccc(C(=O)NC4CCN(C)CC4)cc3OC)nc2N1C1CCCC1 show?
100

// lookup kinase still bound, per cent of control for COc1cc(C(=O)NC2CCN(C)CC2)ccc1Nc1ncc2c(n1)N(C1CCCC1)CCC(=O)N2C(C)C
0

# input compound: CN(C)C/C=C/C(=O)Nc1cccc(Nc2ncc3c(n2)N(C)c2ccccc2C(=O)N3C)c1 ; wanted: its kinase still bound, per cent of control
23

---

tgt: NUAK2 (human)
method summary: KINOMEscan competition binding
test parameters: compound 10.0 µM
parameter: kinase still bound, per cent of control (%)
Field: numeric (%). Do not append units.

// known answers, use as guide
{"compound": "COc1cc(C(=O)NC2CCN(C)CC2)ccc1Nc1ncc2c(n1)N(C1CCCC1)CCC(=O)N2C(C)C", "kinase still bound, per cent of control [%]": 100}
{"compound": "CC[C@@H]1C(=O)N(C)c2cnc(Nc3ccc(C(=O)NC4CCN(C)CC4)cc3OC)nc2N1C1CCCC1", "kinase still bound, per cent of control [%]": 100}
{"compound": "CCC(=O)N1CCN(c2ccc(-n3c(=O)ccc4cnc5ccc(-c6cnc7ccccc7c6)cc5c43)cc2C(F)(F)F)CC1", "kinase still bound, per cent of control [%]": 100}
{"compound": "OCCCNc1cc(-c2ccnc(Nc3cccc(Cl)c3)n2)ccn1", "kinase still bound, per cent of control [%]": 100}
{"compound": "COc1cc(C(=O)NC2CCN(C)CC2)ccc1Nc1ncc2c(n1)N(C1CCCC1)C(C)CC(=O)N2C (centres undefined)", "kinase still bound, per cent of control [%]": 100}

For the compound shown here, Cc1cc([C@@H](C)Nc2ccccc2C(=O)O)c2nc(N3CCOCC3)cc(=O)n2c1 , give the reported kinase still bound, per cent of control.
84

---

tgt: NEK2 (human)
method summary: KINOMEscan competition binding
test parameters: compound 10.0 µM
Entries whose kinase still bound, per cent of control is below 80% take label 1; entries at or above 80% take label 0.

{"molecule": "O=C1Nc2ccc(I)cc2/C1=C/c1cc(Br)c(O)c(Br)c1", "tgt": "NEK2 (human)", "label class": "label 0"}
{"molecule": "O=C(O)c1ccc(Nc2ncc3c(n2)-c2ccc(Cl)cc2C(c2c(F)cccc2F)=NC3)cc1", "tgt": "NEK2 (human)", "label class": "label 1"}
{"molecule": "C=CC(=O)Nc1cccc(Nc2nc(N[C@H]3CC[C@H](N(C)C)CC3)nc3c2ncn3C(C)C)c1", "tgt": "NEK2 (human)", "label class": "label 0"}
{"molecule": "C=CC(=O)Nc1cccc(Oc2nc(Nc3ccc(N4CCN(C)CC4)cc3OC)ncc2Cl)c1", "tgt": "NEK2 (human)", "label class": "label 0"}
{"molecule": "Cc1ccc2nc(NCCN)c3ncc(C)n3c2c1", "tgt": "NEK2 (human)", "label class": "label 0"}
{"molecule": "COc1cc(C(=O)NC2CCN(C)CC2)ccc1Nc1ncc2c(n1)N(C1CCCC1)C(C)CC(=O)N2C (stereo not given)", "tgt": "NEK2 (human)", "label class": "label 0"}

A record lists O=C(NOC[C@H](O)CO)c1ccc(F)c(F)c1Nc1ccc(I)cc1F . Is its kinase still bound, per cent of control below 80%?
label 1

Answer whether the molecule C[C@@H](Oc1cc(-n2cnc3ccc(CN4CCN(C)CC4)cc32)sc1C(N)=O)c1ccccc1C(F)(F)F has kinase still bound, per cent of control strictly less than 80%
label 1

is_below(kinase still bound, per cent of control, 80%) for Cn1c(=O)n(-c2ccc(C(C)(C)C#N)cc2)c2c3cc(-c4cnc5ccccc5c4)ccc3ncc21 ?
label 0

---

tgt: MAPK10 (human)
method summary: KINOMEscan competition binding
test parameters: compound 10.0 µM
parameter: kinase still bound, per cent of control (%)
Field: numeric (%). Do not append units.

Below, each entry is followed by its recorded kinase still bound, per cent of control result.
{"chemical structure": "O=C(NC1CC1)c1cccc(-c2ccc3c(NC(=O)C4CC4)n[nH]c3c2)c1", "kinase still bound, per cent of control (%)": 61}
{"chemical structure": "C=CC(=O)Nc1cccc(Oc2nc(Nc3ccc(N4CCN(C)CC4)cc3OC)ncc2Cl)c1", "kinase still bound, per cent of control (%)": 13}
{"chemical structure": "O=C(O)c1ccc(Nc2ncc3c(n2)-c2ccc(Cl)cc2C(c2c(F)cccc2F)=NC3)cc1", "kinase still bound, per cent of control (%)": 100}
{"chemical structure": "CCOc1cc2ncc(C#N)c(Nc3ccc(OCc4ccccn4)c(Cl)c3)c2cc1NC(=O)/C=C/CN(C)C", "kinase still bound, per cent of control (%)": 27}
{"chemical structure": "C=CC(=O)Nc1cccc(Nc2nc(N[C@H]3CC[C@H](N(C)C)CC3)nc3c2ncn3C(C)C)c1", "kinase still bound, per cent of control (%)": 100}

# input compound: N#Cc1c(NC(=O)c2cccc3ccccc23)sc2c1CCCC2 ; wanted: its kinase still bound, per cent of control
0.95

For the compound CCN1CCN(Cc2ccc(Nc3ncc4c(n3)N(C)c3ccccc3C(=O)N4C)cc2C(F)(F)F)CC1 , what kinase still bound, per cent of control is on record?
100

Please look up its kinase still bound, per cent of control: O=C1Nc2ccc(I)cc2/C1=C/c1cc(Br)c(O)c(Br)c1
60

May I ask what kinase still bound, per cent of control has been recorded for Cc1ccc(NC(=O)c2cccc(C(C)(C)C#N)c2)cc1Nc1ccc2ncn(C)c(=O)c2c1 ?
73

---

tgt: NUAK2 (human)
method summary: KINOMEscan competition binding
test parameters: compound 10.0 µM
kinase still bound, per cent of control values, listed per item
A number alone suffices; assume %.

{"chemical structure": "O=C(NC1CC1)c1cccc(-c2ccc3c(NC(=O)C4CC4)n[nH]c3c2)c1", "result units": "%", "numeric value": 24}

Fill in the blank: the reported kinase still bound, per cent of control of C[C@@H](Oc1cc(-n2cnc3ccc(CN4CCN(C)CC4)cc32)sc1C(N)=O)c1ccccc1C(F)(F)F is ____.
1.2

kinase still bound, per cent of control lookup needed for C=CC(=O)Nc1cccc(Oc2nc(Nc3ccc(N4CCN(C)CC4)cc3OC)ncc2Cl)c1 , thanks.
0.3

Need kinase still bound, per cent of control of Cc1ccc2nc(NCCN)c3ncc(C)n3c2c1 , thanks.
100

Reported kinase still bound, per cent of control for N#Cc1c(NC(=O)c2cccc3ccccc23)sc2c1CCCC2 : what is it?
95

Requested field: kinase still bound, per cent of control. Item: Nc1ccc(-c2ccc3ncc4ccc(=O)n(-c5cccc(C(F)(F)F)c5)c4c3c2)cn1
46

Which kinase still bound, per cent of control is reported for this compound? Cc1ccc(NC(=O)c2cccc(C(C)(C)C#N)c2)cc1Nc1ccc2ncn(C)c(=O)c2c1
100

---

Tested on: PIK3CA (human), P42336 [I800L]
Sequence (P42336 whole entry I800L, looked up): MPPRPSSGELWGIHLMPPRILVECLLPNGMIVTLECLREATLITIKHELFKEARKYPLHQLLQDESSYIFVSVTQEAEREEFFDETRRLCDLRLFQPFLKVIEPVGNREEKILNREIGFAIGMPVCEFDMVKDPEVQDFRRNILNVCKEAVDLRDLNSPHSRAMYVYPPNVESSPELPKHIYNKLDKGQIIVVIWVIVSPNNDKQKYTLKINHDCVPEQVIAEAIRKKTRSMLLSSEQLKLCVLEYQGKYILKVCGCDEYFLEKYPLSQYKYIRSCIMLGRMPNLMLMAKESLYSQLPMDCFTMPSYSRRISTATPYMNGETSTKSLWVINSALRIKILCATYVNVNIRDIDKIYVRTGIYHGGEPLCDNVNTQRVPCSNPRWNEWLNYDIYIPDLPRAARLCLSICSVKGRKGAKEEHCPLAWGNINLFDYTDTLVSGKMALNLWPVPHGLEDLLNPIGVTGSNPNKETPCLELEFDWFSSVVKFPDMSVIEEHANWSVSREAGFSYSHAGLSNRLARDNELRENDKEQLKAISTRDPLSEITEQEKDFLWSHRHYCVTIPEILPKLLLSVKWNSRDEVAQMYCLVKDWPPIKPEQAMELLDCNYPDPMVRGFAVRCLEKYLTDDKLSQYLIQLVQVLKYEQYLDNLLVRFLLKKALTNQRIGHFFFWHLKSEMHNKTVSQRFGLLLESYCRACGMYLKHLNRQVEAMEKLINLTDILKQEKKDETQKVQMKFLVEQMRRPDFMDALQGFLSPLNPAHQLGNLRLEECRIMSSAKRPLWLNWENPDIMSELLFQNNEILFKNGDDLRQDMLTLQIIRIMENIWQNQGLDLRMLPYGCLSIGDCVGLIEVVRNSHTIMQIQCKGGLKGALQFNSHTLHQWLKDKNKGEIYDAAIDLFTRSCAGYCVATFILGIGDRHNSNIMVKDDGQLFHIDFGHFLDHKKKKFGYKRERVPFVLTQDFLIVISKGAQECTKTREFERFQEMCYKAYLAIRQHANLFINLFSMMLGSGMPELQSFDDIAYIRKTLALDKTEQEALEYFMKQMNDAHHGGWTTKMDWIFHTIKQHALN
method summary: KINOMEscan competition binding
test parameters: compound 10.0 µM
parameter: kinase still bound, per cent of control (%)
Provide the reading as a plain figure in %.

{"chemical structure": "COc1cc2ncnc(-n3nc(-c4ccccn4)nc3N)c2cc1OC", "result units": "%", "numeric value": 2.8}
{"chemical structure": "O=c1cc(N2CCOCC2)oc2c(-c3cccc4c3sc3ccccc34)cccc12", "result units": "%", "numeric value": 2.2}
{"chemical structure": "COc1ccc(N(C(=O)Oc2c(C)cccc2C)c2ccnc(Nc3ccc(N4CCN(C)CC4)cc3)n2)c(OC)c1", "result units": "%", "numeric value": 100}

Please examine the following record next.
Sample O=C(Nc1cccc(Nc2ncc(Br)c(NCCc3cnc[nH]3)n2)c1)N1CCCC1 — what was its kinase still bound, per cent of control?
100
